From: patent US20160287589A1

Target: MKNK1 (Homo sapiens, UniProt Q9BUB5, T385D)
Construct: GST (N); purchased Carna Biosciences 02-145; host or cells: insect cells (baculovirus expression system)
Sequence (Q9BUB5 1-424 isoform Q9BUB5-2 T344D): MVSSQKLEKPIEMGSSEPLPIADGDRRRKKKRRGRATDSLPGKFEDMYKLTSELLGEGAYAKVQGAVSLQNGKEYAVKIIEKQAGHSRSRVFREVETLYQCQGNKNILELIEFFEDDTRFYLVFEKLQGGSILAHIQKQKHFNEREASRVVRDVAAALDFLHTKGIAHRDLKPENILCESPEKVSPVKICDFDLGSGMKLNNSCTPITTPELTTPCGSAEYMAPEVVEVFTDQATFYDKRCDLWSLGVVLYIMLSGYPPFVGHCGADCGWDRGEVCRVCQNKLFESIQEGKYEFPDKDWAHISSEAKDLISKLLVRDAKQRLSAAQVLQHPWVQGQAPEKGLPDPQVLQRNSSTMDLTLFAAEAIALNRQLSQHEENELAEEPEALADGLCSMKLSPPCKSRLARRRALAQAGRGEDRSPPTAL
Assay: MKNK1 kinase assay (MKNK1 TR-FRET assay)
Assay type: biochemical
Conditions: Table 1c; 10 μM ATP, 15 min preincubation
Method: MKNK1-inhibitory activity of compounds of the present invention was quantified employing the MKNK1 TR-FRET assay as described in the following paragraphs. […] The resulting mixture was incubated for 1 h at 22° C. to allow the formation of complex between the phosphorylated biotinylated peptide and the detection reagents. Subsequently the amount of phosphorylated substrate was evaluated by measurement of the resonance energy transfer from the Eu-chelate to the streptavidine-XL. […]
# IC50 annotations

- smilesText: "C[C@H](N)COc1ccc2ncc(-c3cc4c(N5CCOC[C@H]5C)nccc4o3)n2n1"
  targetOfAssay: "MKNK1 (Homo sapiens, UniProt Q9BUB5, T385D)"
  IC50 [nM]: 9.2
- smilesText: "COCCN(C)c1nccc2oc(-c3cnc4ccc(OCCCS(C)(=O)=O)nn34)cc12"
  targetOfAssay: "MKNK1 (Homo sapiens, UniProt Q9BUB5, T385D)"
  IC50 [nM]: 1.8
- smilesText: "CCN(CCOC)c1nccc2oc(-c3cnc4ccc(O[C@H](C)CN)nn34)cc12"
  targetOfAssay: "MKNK1 (Homo sapiens, UniProt Q9BUB5, T385D)"
  IC50 [nM]: 0.6
- smilesText: "C[C@H](N)COc1ccc2ncc(-c3cc4c(N5C[C@@H](C)O[C@@H](C)C5)nccc4o3)n2n1"
  targetOfAssay: "MKNK1 (Homo sapiens, UniProt Q9BUB5, T385D)"
  IC50 [nM]: 12.2
- smilesText: "C[C@@H]1CN(c2nccc3oc(-c4cnc5ccc(O[C@H]6C[C@H](N)C6)nn45)cc23)C[C@H](C)O1"
  targetOfAssay: "MKNK1 (Homo sapiens, UniProt Q9BUB5, T385D)"
  IC50 [nM]: 18.7
- smilesText: "CN(C)[C@H]1CCN(c2nccc3oc(-c4cnc5ccc(OCCCS(C)(=O)=O)nn45)cc23)C1"
  targetOfAssay: "MKNK1 (Homo sapiens, UniProt Q9BUB5, T385D)"
  IC50 [nM]: 10.4
- smilesText: "CN1CCC(N(C)c2nccc3oc(-c4cnc5ccc(OC[C@H]6CCC(=O)N6)nn45)cc23)CC1"
  targetOfAssay: "MKNK1 (Homo sapiens, UniProt Q9BUB5, T385D)"
  IC50 [nM]: 11.6

###

Biological target: MKNK1 (Homo sapiens, UniProt Q9BUB5, T385D)
Construct: GST (N); purchased Carna Biosciences 02-145; host or cells: insect cells (baculovirus expression system)
Assay: MKNK1 kinase high ATP assay (TR-FRET-based)
Type: biochemical
Conditions: Table 2b; 2 mM ATP, 15 min preincubation
pIC50: −log10 of the molar value.
metricName: pIC50

- smilesText: "COc1ccc2ncc(-c3cc4c(N5CCN[C@H](C)C5)cccc4o3)n2n1"
  testValue: 8.96
- smilesText: "O=C1CC[C@H](COc2ccc3ncc(-c4cc5c(N6CCN(c7ccccc7)CC6)cccc5o4)n3n2)N1"
  testValue: 7.57
- smilesText: "CC1(C)CN(c2cccc3oc(-c4cnc5ccc(OC[C@H]6CCC(=O)N6)nn45)cc23)CCO1"
  testValue: 7.95
- smilesText: "COC[C@H]1CCCN1c1cccc2oc(-c3cnc4ccc(OC[C@H]5CNCC(=O)N5)nn34)cc12"
  testValue: 8.41
- smilesText: "C[C@H](N)COc1ccc2ncc(-c3cc4c(N5CCOCC5)cccc4o3)n2n1"
  testValue: 7.44
- smilesText: "C[C@@H]1CN(c2cccc3oc(-c4cnc5ccc(OCC(F)(F)F)nn45)cc23)CCN1"
  testValue: 8.70
